- Experimental system: TRKC (Homo sapiens, UniProt Q16288)
- Sequence (Q16288 32-839): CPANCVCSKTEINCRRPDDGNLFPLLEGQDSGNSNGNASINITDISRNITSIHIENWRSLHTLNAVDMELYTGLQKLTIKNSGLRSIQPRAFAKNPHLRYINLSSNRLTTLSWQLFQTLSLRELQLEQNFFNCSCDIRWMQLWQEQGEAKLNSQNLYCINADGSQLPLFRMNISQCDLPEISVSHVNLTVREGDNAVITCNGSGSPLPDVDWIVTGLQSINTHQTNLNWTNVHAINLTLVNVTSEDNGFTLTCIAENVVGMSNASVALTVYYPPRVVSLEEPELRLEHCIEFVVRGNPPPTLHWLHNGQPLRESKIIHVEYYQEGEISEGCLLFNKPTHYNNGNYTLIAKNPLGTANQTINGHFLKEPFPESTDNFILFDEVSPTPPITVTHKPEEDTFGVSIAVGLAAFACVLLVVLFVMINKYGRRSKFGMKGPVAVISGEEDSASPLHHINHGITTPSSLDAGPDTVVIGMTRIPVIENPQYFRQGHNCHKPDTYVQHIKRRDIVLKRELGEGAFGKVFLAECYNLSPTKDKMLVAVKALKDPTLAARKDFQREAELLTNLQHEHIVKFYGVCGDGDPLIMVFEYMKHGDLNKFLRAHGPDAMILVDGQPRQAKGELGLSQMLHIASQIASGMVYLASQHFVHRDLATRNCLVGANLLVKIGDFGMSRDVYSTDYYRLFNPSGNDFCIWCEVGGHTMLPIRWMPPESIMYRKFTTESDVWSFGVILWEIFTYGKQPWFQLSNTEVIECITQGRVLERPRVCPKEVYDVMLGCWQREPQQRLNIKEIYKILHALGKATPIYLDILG
Measured endpoint: pIC50
Numbers only, as −log10 of the molar value.

[in] Name the recorded pIC50 of the item CCN1CCN(Cc2cc(C(=O)Nc3ccc4[nH]c(-c5ccc6cn[nH]c6c5)nc4c3)cc(C(F)(F)F)c2)CC1 in your answer.
[out] 5.82

* * *

- Experimental system: FLT3 (R595_E596 ins EY) (Homo sapiens, UniProt P36888, INS595EY)
- Protocol summary: Kinase HotSpot radiometric kinase assay (Reaction Biology)
Measured endpoint: pIC50
Numbers only, as −log10 of the molar value.

[in] Please indicate recorded pIC50 of CCN1CCN(Cc2cc(C(=O)Nc3ccc4[nH]c(-c5ccc6cn[nH]c6c5)nc4c3)cc(C(F)(F)F)c2)CC1 [Compound 8r] measured with FLT3 (R595_E596 ins EY) (Homo sapiens, UniProt P36888, INS595EY).
[out] 7.61

* * *

- Experimental system: FLT3 (Y591_V592 ins VDFREYEYD) (Homo sapiens, UniProt P36888, INS591VDFREYEYD)
- Sequence (P36888 with tags, fused parts or gaps INS591VDFREYEYD limits assumed): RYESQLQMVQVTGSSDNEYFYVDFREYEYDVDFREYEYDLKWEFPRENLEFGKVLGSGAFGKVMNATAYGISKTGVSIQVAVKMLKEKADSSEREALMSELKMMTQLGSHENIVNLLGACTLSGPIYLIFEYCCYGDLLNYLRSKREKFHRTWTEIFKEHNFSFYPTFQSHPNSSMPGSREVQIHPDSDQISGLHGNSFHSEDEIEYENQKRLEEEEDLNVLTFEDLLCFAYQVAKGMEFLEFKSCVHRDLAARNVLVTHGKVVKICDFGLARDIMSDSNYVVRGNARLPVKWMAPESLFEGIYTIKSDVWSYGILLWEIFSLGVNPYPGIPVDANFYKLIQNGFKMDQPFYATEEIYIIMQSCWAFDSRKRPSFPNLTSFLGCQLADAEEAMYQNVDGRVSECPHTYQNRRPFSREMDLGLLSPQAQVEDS
- Protocol summary: Kinase HotSpot radiometric kinase assay (Reaction Biology)
- Experimental parameters: read-out: IC50 FLT3 (Y591_V592 ins VDFREYEYD)
Measured endpoint: IC50
Numeric answer plus unit only.

[in] Name the recorded IC50 of the item CCN1CCN(Cc2cc(C(=O)Nc3ccc4[nH]c(-c5ccc6cn[nH]c6c5)nc4c3)cc(C(F)(F)F)c2)CC1 in your answer.
[out] 49.5 nM

* * *

- Experimental system: c-Kit (Homo sapiens)
- Sequence (P10721 26-976): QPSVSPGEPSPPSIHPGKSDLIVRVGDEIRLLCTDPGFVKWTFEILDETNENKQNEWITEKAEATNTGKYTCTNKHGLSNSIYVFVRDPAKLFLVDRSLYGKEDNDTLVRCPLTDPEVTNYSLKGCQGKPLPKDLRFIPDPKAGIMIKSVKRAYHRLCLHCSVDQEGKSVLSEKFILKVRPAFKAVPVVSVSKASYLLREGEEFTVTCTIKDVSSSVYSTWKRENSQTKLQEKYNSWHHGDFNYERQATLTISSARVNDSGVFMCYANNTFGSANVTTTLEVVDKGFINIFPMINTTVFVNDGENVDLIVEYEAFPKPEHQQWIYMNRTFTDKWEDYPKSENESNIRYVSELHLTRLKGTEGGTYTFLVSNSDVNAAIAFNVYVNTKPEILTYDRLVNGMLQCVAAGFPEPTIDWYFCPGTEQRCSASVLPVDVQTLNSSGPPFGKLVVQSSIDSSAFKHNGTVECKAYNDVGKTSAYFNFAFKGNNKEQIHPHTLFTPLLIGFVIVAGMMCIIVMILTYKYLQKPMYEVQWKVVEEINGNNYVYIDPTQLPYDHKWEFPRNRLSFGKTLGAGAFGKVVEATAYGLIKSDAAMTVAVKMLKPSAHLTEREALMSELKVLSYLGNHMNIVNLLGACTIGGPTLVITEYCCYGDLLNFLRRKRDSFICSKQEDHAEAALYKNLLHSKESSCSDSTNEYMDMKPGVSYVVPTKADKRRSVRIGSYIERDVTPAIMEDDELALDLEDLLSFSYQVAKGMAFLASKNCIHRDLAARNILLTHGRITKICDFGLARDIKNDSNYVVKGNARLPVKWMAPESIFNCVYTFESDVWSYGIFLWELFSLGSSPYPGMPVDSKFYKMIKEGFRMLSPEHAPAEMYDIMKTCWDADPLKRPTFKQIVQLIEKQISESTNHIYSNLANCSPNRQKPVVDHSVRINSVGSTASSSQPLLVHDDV
Measured endpoint: pIC50
Give bare numbers, as −log10 of the molar value.

[in] Name the recorded pIC50 of the item CCN1CCN(Cc2cc(C(=O)Nc3ccc4[nH]c(-c5ccc6cn[nH]c6c5)nc4c3)cc(C(F)(F)F)c2)CC1 [Compound 8r] in your answer.
[out] 5.34

* * *

Please respond with reported melting point for every item in the list.

In the examples that follow, each entry is paired with its recorded melting point.
1) CC(C)(C)c1cc(C(=O)Nc2ccc3[nH]c(-c4ccc5cn[nH]c5c4)nc3c2)no1 :: 147 to 149 °C
2) O=C(Nc1ccc(Cl)c(Cl)c1)Nc1ccc2[nH]c(-c3ccc4cn[nH]c4c3)nc2c1 :: 144 to 146 °C
3) CN1CCC(Nc2cc(C(=O)Nc3ccc4[nH]c(-c5ccc6cn[nH]c6c5)nc4c3)cc(C(F)(F)F)c2)CC1 :: 175 to 177 °C
4) CCN1CCN(c2cc(C(=O)Nc3ccc4[nH]c(-c5ccc6cn[nH]c6c5)nc4c3)cc(C(F)(F)F)c2)CC1(C)C :: 153 to 154 °C
5) Cc1nccn1-c1cc(C(=O)Nc2ccc3[nH]c(-c4ccc5cn[nH]c5c4)nc3c2)cc(C(F)(F)F)c1 :: 251 to 253 °C

Quick batch: melting point for everything below.
1. O=C(Nc1ccc2[nH]c(-c3ccc4cn[nH]c4c3)nc2c1)c1cc(N2CCN(C3CC3)CC2)cc(C(F)(F)F)c1
2. CCN1CCN(Cc2ccc(C(=O)Nc3ccc4[nH]c(-c5ccc6cn[nH]c6c5)nc4c3)cc2C(F)(F)F)CC1
3. CCN1CCN(Cc2cc(C(=O)Nc3ccc4[nH]c(-c5ccc6cn[nH]c6c5)nc4c3)cc(C(F)(F)F)c2)CC1(C)C

[out]
["154 to 156 °C", "164 to 166 °C", "255 to 257 °C"]

Quick batch: melting point for everything below.
1. CN1CCN(c2cc(C(=O)Nc3ccc4[nH]c(-c5ccc6cn[nH]c6c5)nc4c3)cc(C(F)(F)F)c2)CC1
2. CC(C)(C)c1cc(NC(=O)Nc2ccc3[nH]c(-c4ccc5cn[nH]c5c4)nc3c2)no1
3. COc1ccc(/C=C/C(=O)Nc2ccc3[nH]c(-c4ccc5cn[nH]c5c4)nc3c2)cc1
4. CN(C)C1CCN(c2cc(C(=O)Nc3ccc4[nH]c(-c5ccc6cn[nH]c6c5)nc4c3)cc(C(F)(F)F)c2)C1 (stereo not drawn)
5. O=C(Nc1ccc2[nH]c(-c3ccc4cn[nH]c4c3)nc2c1)c1ccc(N2CCOCC2)c(C(F)(F)F)c1
6. CCN(CC)C1CCN(c2cc(C(=O)Nc3ccc4[nH]c(-c5ccc6cn[nH]c6c5)nc4c3)cc(C(F)(F)F)c2)C1 (stereo not drawn)

[out]
1. 228 to 230 °C
2. 184 to 186 °C
3. 206 to 208 °C
4. 283 to 285 °C
5. 202 to 204 °C
6. 221 to 223 °C

* * *

- Experimental system: FLT3 wild type (Homo sapiens)
- Construct: purchased Reaction Biology Corp. (Kinase HotSpot service)
- Sequence (P36888 27-993): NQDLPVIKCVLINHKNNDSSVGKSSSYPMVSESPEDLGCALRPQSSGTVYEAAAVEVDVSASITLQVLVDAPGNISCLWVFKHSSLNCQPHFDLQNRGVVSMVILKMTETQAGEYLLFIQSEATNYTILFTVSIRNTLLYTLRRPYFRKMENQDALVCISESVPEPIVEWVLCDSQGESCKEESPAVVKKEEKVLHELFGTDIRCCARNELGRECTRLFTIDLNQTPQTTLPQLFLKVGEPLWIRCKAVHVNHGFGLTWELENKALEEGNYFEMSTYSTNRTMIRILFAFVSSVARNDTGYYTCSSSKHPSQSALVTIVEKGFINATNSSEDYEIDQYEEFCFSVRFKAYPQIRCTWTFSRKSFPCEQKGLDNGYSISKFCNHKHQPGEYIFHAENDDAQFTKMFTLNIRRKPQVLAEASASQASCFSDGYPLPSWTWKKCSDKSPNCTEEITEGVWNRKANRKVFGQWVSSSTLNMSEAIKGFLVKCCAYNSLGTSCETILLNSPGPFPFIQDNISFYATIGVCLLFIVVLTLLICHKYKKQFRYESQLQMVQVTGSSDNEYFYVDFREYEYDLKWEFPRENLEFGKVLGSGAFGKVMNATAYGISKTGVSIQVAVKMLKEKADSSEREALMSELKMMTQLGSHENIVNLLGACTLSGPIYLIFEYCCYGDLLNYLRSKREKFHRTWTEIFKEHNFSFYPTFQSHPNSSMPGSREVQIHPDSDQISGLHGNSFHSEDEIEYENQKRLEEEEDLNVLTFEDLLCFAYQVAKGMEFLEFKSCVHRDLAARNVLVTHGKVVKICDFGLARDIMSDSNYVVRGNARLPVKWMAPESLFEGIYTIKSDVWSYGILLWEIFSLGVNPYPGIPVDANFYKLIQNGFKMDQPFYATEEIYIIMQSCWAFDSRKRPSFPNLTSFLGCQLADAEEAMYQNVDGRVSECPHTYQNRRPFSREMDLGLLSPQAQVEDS
- Protocol summary: Kinase HotSpot radiometric kinase assay (Reaction Biology)
- Assay type: biochemical
- Experimental parameters: Table 1; read-out: FLT3 IC50
Measured endpoint: pIC50
Answers are plain numbers, as −log10 of the molar value.

[in] Name the recorded pIC50 of the item O=C(Nc1ccc(Cl)c(Cl)c1)Nc1ccc2[nH]c(-c3ccc4cn[nH]c4c3)nc2c1 in your answer.
[out] 5.51

* * *

- Experimental system: FLT3 wild type (Homo sapiens)
- Construct: purchased Reaction Biology Corp. (Kinase HotSpot service)
- Protocol summary: Kinase HotSpot radiometric kinase assay (Reaction Biology)
- Format: biochemical
- Experimental parameters: values given in nM; read-out: IC50 FLT3 wild type
Measured endpoint: IC50 (nM)
Give bare numbers, in nM.

[in] Please indicate recorded IC50 of CCN1CCN(c2cc(C(=O)Nc3ccc4[nH]c(-c5ccc6cn[nH]c6c5)nc4c3)cc(C(F)(F)F)c2)CC1(C)C measured with FLT3 wild type (Homo sapiens).
[out] 65.9

* * *

- Experimental system: CAMKK1 (Homo sapiens)
- Sequence (Q8N5S9 whole entry): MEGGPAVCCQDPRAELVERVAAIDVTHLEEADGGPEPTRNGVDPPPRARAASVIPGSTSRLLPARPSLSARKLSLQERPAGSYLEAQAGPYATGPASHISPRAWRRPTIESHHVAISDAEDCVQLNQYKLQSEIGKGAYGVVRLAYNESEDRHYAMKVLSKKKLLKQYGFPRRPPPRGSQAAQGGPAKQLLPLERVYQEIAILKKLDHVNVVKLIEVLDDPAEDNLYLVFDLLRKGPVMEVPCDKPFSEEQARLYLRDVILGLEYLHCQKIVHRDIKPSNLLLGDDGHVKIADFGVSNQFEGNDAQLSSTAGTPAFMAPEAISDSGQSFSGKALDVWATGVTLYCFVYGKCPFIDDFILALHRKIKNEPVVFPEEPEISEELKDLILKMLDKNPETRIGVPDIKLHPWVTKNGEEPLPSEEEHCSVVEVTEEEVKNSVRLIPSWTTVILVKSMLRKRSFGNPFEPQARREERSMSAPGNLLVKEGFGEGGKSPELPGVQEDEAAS
Measured endpoint: IC50 (nM)
One number for each entry, in nM.

[in] Name the recorded IC50 of the item CCN1CCN(Cc2cc(C(=O)Nc3ccc4[nH]c(-c5ccc6cn[nH]c6c5)nc4c3)cc(C(F)(F)F)c2)CC1 in your answer.
[out] 395
